# System: FAAH (Mus musculus (Mouse), UniProt O08914)
# Sequence (O08914 whole entry): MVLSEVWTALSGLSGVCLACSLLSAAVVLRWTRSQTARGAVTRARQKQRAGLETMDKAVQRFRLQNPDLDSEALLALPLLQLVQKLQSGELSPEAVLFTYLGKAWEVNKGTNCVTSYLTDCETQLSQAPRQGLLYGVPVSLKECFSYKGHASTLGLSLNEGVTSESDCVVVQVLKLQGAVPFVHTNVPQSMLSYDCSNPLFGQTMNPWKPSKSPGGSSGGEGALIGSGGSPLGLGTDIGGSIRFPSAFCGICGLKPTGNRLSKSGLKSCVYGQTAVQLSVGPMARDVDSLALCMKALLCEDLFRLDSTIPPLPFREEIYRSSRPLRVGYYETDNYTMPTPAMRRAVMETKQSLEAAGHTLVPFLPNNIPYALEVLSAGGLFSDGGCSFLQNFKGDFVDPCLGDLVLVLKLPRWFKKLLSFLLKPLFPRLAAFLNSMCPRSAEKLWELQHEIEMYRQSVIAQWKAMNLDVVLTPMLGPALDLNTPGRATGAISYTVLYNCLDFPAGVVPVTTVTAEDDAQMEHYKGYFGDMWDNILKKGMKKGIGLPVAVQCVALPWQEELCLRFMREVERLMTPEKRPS
# Assay Overview: Mouse brain proteomes from inhibitor treated mice (oral gavage, sacrifice 4 h after administration, ABPP analysis), FAAH
# Assay type: in vivo
# Condition Context: 5 mg/kg oral gavage
Outcome Measure: FAAH % Inh 5 mg/kg (mouse)

[
  {
    "Compound": "O=C(OC(C(F)(F)F)C(F)(F)F)N1CCC2(CCCN2Cc2ccc(C(F)(F)F)cc2N2CCOCC2)CC1",
    "System": "FAAH (Mus musculus (Mouse), UniProt O08914)",
    "FAAH % Inh 5 mg/kg (mouse)": "# (# is < 25%)"
  },
  {
    "Compound": "O=C(OC(C(F)(F)F)C(F)(F)F)N1CCC2(CCCN2Cc2ccc(C(F)(F)F)cc2N2CCC(F)(F)CC2)CC1",
    "System": "FAAH (Mus musculus (Mouse), UniProt O08914)",
    "FAAH % Inh 5 mg/kg (mouse)": "# (# is < 25%)"
  },
  {
    "Compound": "COc1cc(Cl)ccc1CN1CCCC12CCN(C(=O)OC(C(F)(F)F)C(F)(F)F)CC2",
    "System": "FAAH (Mus musculus (Mouse), UniProt O08914)",
    "FAAH % Inh 5 mg/kg (mouse)": "# (# is < 25%)"
  },
  {
    "Compound": "O=C(OC(C(F)(F)F)C(F)(F)F)N1CCC2(CCN(Cc3ccc(C(F)(F)F)cc3N3CCCCC3)C2)CC1",
    "System": "FAAH (Mus musculus (Mouse), UniProt O08914)",
    "FAAH % Inh 5 mg/kg (mouse)": "# (# is < 25%)"
  }
]

Note to self: FAAH % Inh 5 mg/kg (mouse) recorded for O=C(OC(C(F)(F)F)C(F)(F)F)N1CCC2(CCN(Cc3ccc(Cl)cc3N3CC4COCC4C3)C2)CC1 (stereo not drawn) was # (# is < 25%)

Short answer for O=C(O)C1CCN(Cc2cc(Cl)cc(CN3CCCC34CCN(C(=O)OC(C(F)(F)F)C(F)(F)F)CC4)c2)C1 (stereo not drawn) : FAAH % Inh 5 mg/kg (mouse) was # (# is < 25%)
